Target: UniProt Q9Y5S2
Assay: MRCKβ kinase assay (IMAP fluorescence polarization)
Assay type: biochemical
pKi: −log10 of the molar value.
Cut-off 10 on pKi, inclusive. At or above means 1.0; below means 0.0.

> print(dat)
                                   compound  class
1  c1csc(-c2c[nH]c3nccc(N4CC[C@@]5(CCCCN5)C4)c23)n1 [Example E133]    1.0
2  c1csc(-c2c[nH]c3nccc(N4CC[C@@]5(CCCN5)C4)c23)n1 [Example E134]    0.0
3  c1cc(N2CCC3(CCCCN3)C2)c2c(-c3ncsn3)c[nH]c2n1 (centres unmarked) [Example E129]    0.0
